assay: qHTS assay for small molecule agonists of retinoid X receptor alpha signaling (AID 588544); conditions: HEK293T RXRa-UAS-bla, beta-lactamase reporter, 18 h; 530 nm emission
Records with an inconclusive call do not appear.
// reported max response per item
Please reply with the bare figure in % and do not write the unit itself.

Prompt line: Entry CC(C)COC(=O)c1ccccc1C(=O)OCC(C)C : reported max response = ?
Response line: -12.5

Prompt line: Which max response value is on record for OCCN(CCO)CCO ?
Response line: -6.39

Prompt line: Item Oc1c(Cl)c(Cl)c(Cl)c(Cl)c1Cl has what recorded max response?
Response line: 19.6

Prompt line: Fill in the blank: the reported max response of COC(=O)c1ccccc1C(=O)OC is ____.
Response line: -8.66

Prompt line: Record request: max response value, item Oc1ccccc1Cl
Response line: 8.5

Prompt line: Consider the molecule CCOP(=S)(OCC)SCSCC and give its measured max response.
Response line: -8.57

Prompt line: Name the recorded max response for O=Cc1ccccc1 .
Response line: 10.9

----------
biological target: Nucleoprotein (Lymphocytic choriomeningitis virus (strain Armstrong)); test: qHTS for Inhibitors of the Functional Ribonucleoprotein Complex (vRNP) of Lymphocytic Choriomeningitis Arenaviruses (LCMV): LCMV Primary Screen - GLuc reporter signal (AID 1347086); details: LCMV minigenome vRNP cell assay, Gaussia luciferase reporter; series mostly up to 57.5 µM; further: nearly all actives have a fitted effect of over 70% in size
Results filed as inconclusive are left out. The source made the active and inactive calls. Calls follow the shape of the full dose curve.
One label from this list, please: y for active, n for inactive

Consider the worked cases shown below.
Prompt line: Status in this test for Oc1ccc(-c2nc(-c3ccc(F)cc3)c(-c3ccncc3)[nH]2)cc1 ?
Response line: n

Prompt line: Called result for CCNC(=O)c1cc2c(-c3cc(OCCN4CCCC4)c(Cl)cc3Cl)nc(N)nc2s1
Response line: y

Prompt line: Answer briefly: the call reported for Oc1ccccc1O in this assay.
Response line: n

Prompt line: Could you please tell me the result logged for COC(=O)Nc1ccc(C)c(NC(=O)OC)c1 in this assay?
Response line: n

Prompt line: Just curious, what result did CC(C)(C)c1nc(-c2cccc(NS(=O)(=O)c3c(F)cccc3F)c2F)c(-c2ccnc(N)n2)s1 get here?
Response line: n

Further cases:
Prompt line: Hi, sorry to bother you, what did the test record for COC1CCC(N(C(=O)C2CCC(C)CC2)c2cc(C3=CCCCC3)sc2C(=O)O)CC1 (configuration not stated) ?
Response line: n

Prompt line: Outcome? NC(=O)Nc1ccc(Cl)c(Cl)c1
Response line: n

Prompt line: Just curious, what result did CC[C@]1(O)C[C@@H]2CN(CCc3c([nH]c4ccccc34)[C@@](C(=O)OC)(c3cc4c(cc3OC)N(C=O)[C@@H]3C45CCN4CC=C[C@](CC)([C@H]45)[C@@H](OC(C)=O)[C@]3(O)C(=O)OC)C2)C1 (some centres not stated) get here?
Response line: n

Prompt line: For this compound, state the assay outcome: OC1O[C@H](c2ccc3c(c2)OCO3)[C@H]2CO[C@H](c3ccc4c(c3)OCO4)[C@@H]12 (some centres not stated)
Response line: n

Prompt line: Call for entry Cn1c(N2CCCCS2(=O)=O)nc(C(=O)NCc2ccc(F)cc2)c(O)c1=O :
Response line: n

Prompt line: What call does the record list for NC1(Cc2ccc(Cl)cc2)CCN(c2ncnc3[nH]ccc23)CC1 ?
Response line: y

Prompt line: What is the recorded call for this compound in the test? NCc1ccccc1
Response line: n

Prompt line: Write down the call the test reported for this compound. Item: O=C1C=CC[C@H](/C=C/C[C@@H](O)C[C@H](O)CCc2ccccc2)O1
Response line: n

Prompt line: Assay result, entry COC(=O)[C@H](c1ccccc1Cl)N1CCc2sccc2C1 — outcome?
Response line: n

----------
test system: Tov-21-G; experiment: Primary qHTS to identify gynecologic anti-cancer compounds using libraries of approved drugs and bioactive compounds (AID 1345084); conditions: Gynecologic cancer cell panel viability, ATPlite luminescence, 48 h; series mostly up to 57.5 µM; further: nearly all actives have a fitted effect of over 55% in size; on activity change, negative = cytotoxicity: on the % scale 0 is the no-effect control and ±100 the full control effect
Inconclusive results are not listed. Calls of active or inactive are those of the source. The call rests on the fitted dose curve; in most records, active means well fitted cell-killing curve with a large enough effect; inconclusive means small, poorly fitted or top-dose-only effect, or effect the other way; inactive means flat fitted curve, though single readings scatter.
experimental-readout: activity change, negative = cytotoxicity

Prompt line: # value lookup — system Tov-21-G, readout activity change, negative = cytotoxicity, item CC[C@@H]1/C=C/C=C/C[C@H](C)C(O)[C@](C)(O)C(=O)[C@H](C)C(O)[C@H](C)C(=O)[C@H](C)[C@@H](O)[C@H](C)/C=C/C(=O)O[C@H]2[C@@H](C)[C@@H](CC1)O[C@]1(O[C@H](C[C@H](C)O)[C@H](C)CC1=O)[C@@H]2C (some centres not stated)
Response line: 25.5% [at 11.6 µM] (inactive)

Further cases:
Prompt line: activity change, negative = cytotoxicity of C/C=C(\C)C(=O)OC1CC2C(CC=C3CC(OC4CC(OC)C(OC5CC(OC)C(OC6CC(OC)C(OC7CC(OC)C(O)C(C)O7)C(C)O6)C(C)O5)C(C)O4)CCC32C)C2(O)CCC(C(C)=O)C12C (configuration not stated) on Tov-21-G?
Response line: 1.18% [at 11.6 µM] (inactive)

----------
experiment: Primary qHTS for inhibitors of MERS-S pseudo-typed particle cell entry (AID 1479149); conditions: MERS-S pseudotyped particle entry, luciferase; series mostly up to 57.1 µM; further: nearly all actives have a fitted effect of over 60% in size
Results filed as inconclusive are left out. The source made the active and inactive calls. Calls come from the whole dose curve.
API: response.call in class 1 for active, class 0 for inactive

The examples below pair each entry with its known result.
Prompt line: In this assay, the call recorded for C[N+]1(CCCCC[N+]2(C)CCCC2)CCCC1 was what?
Response line: class 0

Prompt line: Assay result, entry COc1ccc(C2(C#N)CCC(C(=O)O)CC2)cc1OC1CCCC1 (stereo not given) — outcome?
Response line: class 0

Prompt line: Status in this test for COc1cc2c(cc1Cc1cccc(Cl)c1F)c(=O)c(C(=O)O)cn2[C@H](CO)C(C)C ?
Response line: class 1

Prompt line: Record lookup: outcome of this test for NCCCNCCCCNC(=O)C(O)NC(=O)CCCCCCN=C(N)N (stereo not given) ?
Response line: class 0

Then this compound:
Prompt line: Dear all, I need the recorded test outcome for COc1ccc(-n2nc(C(N)=O)c3c2C(=O)N(c2ccc(N4CCCCC4=O)cc2)CC3)cc1 , thank you.
Response line: class 0

----------
Parameter activity change, negative = inhibition: see the listing below.
experiment: Primary qHTS to identify inhibitors of SARS-CoV-2 cell entry (AID 1645846); settings: SARS-CoV-2 pseudovirus cell entry assay, luminescence; at 57.1 µM (top of the series) unless noted; further: nearly all actives have a fitted effect of over 45% in size
Records with an inconclusive call do not appear.

Solved entries (count: 3):
Prompt line: Can you share its activity change, negative = inhibition? I mean this compound: C[C@H](CCC(=O)O)[C@H]1CCC2C3C[C@H](O)[C@@H]4C[C@H](O)CC[C@]4(C)C3CC[C@@]21C (stereo partly drawn)
Response line: -10.6%

Prompt line: What does the data say about its activity change, negative = inhibition? Entry: NC(=O)c1noc([C@H](CCCC2CCCCC2)CC(=O)NO)n1
Response line: -13.6%

Prompt line: Given the compound C[C@@H](NC(=O)c1ncnc(N)c1Cl)c1ncc(C(=O)Nc2cc(C(F)(F)F)c(Cl)cn2)s1 , what is its reported activity change, negative = inhibition?
Response line: -12.7%

More entries:
Prompt line: Using the record for CO[C@H]1[C@@H](O)[C@H](N)[C@@H](O[C@H]2O[C@H]([C@H](C)N)CC[C@H]2N)[C@H](O)[C@@H]1N(C)C(=O)CN , report its activity change, negative = inhibition.
Response line: -5.5%

Prompt line: # get_value(readout='activity change, negative = inhibition', item= Cn1cc(C2=C(c3c4n(c5ccccc35)CCC(CN)C4)C(=O)NC2=O)c2ccccc21 (stereo not drawn) )
Response line: -9.15% [at 11.3 µM]

Prompt line: Look at this compound and give its reported activity change, negative = inhibition. O=C(Nc1cn[nH]c1-c1nc2ccc(CN3CCOCC3)cc2[nH]1)NC1CC1
Response line: -95.5%

Prompt line: Tell me the measured activity change, negative = inhibition of CC1(C)CC(=O)c2c(C(F)(F)F)nn(-c3ccc(C(N)=O)c(NC4CCC(O)CC4)c3)c2C1 (stereo not drawn) , please.
Response line: -89.6%

----------
Tested on: Tov-21-G
Assay: Primary qHTS to identify gynecologic anti-cancer compounds using libraries of approved drugs and bioactive compounds (AID 1345084); further: nearly all actives have a fitted effect of over 55% in size; further: potency means the concentration at half of the fitted maximal effect
Settings: Gynecologic cancer cell panel viability, ATPlite luminescence, 48 h; series mostly up to 57.5 µM
Excerpt: National Center for Advancing Translational Sciences [NCATS] Assay Overview: Chemotherapeutic drug responses vary from cancer to cancer and from patient to patient. […] ATPlite is a luminescence based assay reliant on the conversion of a luciferase substrate to light in the presence of ATP. As a cytotoxic compound will suppress growth and decrease the number of cells, the concentration of ATP will decrease, and less light signal will be detected in the well. […]
Records with an inconclusive call do not appear. Calls of active or inactive are those of the source. Calls come from the whole dose curve; as a rule, active = well fitted cell-killing curve with a large enough effect; inconclusive = small, poorly fitted or top-dose-only effect, or effect the other way; inactive = flat fitted curve, though single readings scatter. *1 amine or outer side, *2 acyl side, *3 side chain or, on linkers, in order; H or OH if unused. Where a SMILES comes first, the peptide text is derived from it. [ ]: non-standard residue; d: D form. X5 = CC(CC(O[*:1])C(=O)[*:2])C(=O)O; NMeV = CN[CH](C(=O)O)C(C)C; NMeA = CN[CH](C)C(=O)O; βAla = NCCC(=O)O
experimental-readout: Potency

Observe how each entry below is paired with its result.
Prompt line: For CC(C)(C)[C@]1(O)C[C@@H]2OC(=O)C[C@@]23C(=O)O[C@@H]2OC(=O)[C@@H](O)[C@]213 , what is its reported Potency?
Response line: inactive

Prompt line: Value lookup for Potency; key = COc1cc(N2CCN(C)CC2)ccc1N
Response line: inactive

Prompt line: Could you share which Potency value was measured for CCC(C)C1NC(=O)C2CCCN2C(=O)C(CC(C)C(=O)O)OC(=O)CCNC(=O)C(C)N(C)C(=O)C(C(C)C)N(C)C1=O (stereo not given) (cyclo([X5]PI[NMeV][NMeA][βAla]); configuration not given here) ?
Response line: inactive

Prompt line: Find the recorded Potency belonging to COc1cc(O)c2c(c1)/C=C/C[C@@H](O)[C@@H](O)C(=O)CCC[C@H](C)OC2=O and report it.
Response line: inactive

Prompt line: What does the data say about its Potency? Entry: CCOC(=O)C1(CCc2ccccc2)CCN(Cc2ccc(NC(C)=O)cc2)CC1
Response line: inactive

More entries:
Prompt line: Requested field: Potency. Item: CC(=O)OC[C@]12C[C@H](O)C(C)=C[C@H]1O[C@@H]1[C@H](O)[C@@H](O)[C@@]2(C)[C@]12CO2
Response line: 8.91 µM (active)

Prompt line: Field request: Potency | item: CCC1CC2CN3CCc4c([nH]c5ccccc45)C(C(=O)OC)(C2)C13 (stereo not given)
Response line: inactive

Prompt line: Which Potency is reported for this compound? CC1=C[C@H]2O[C@@H]3[C@H](O)[C@@H](O)[C@](C)([C@@]2(CO)C[C@@H]1O)[C@]31CO1
Response line: 10 µM (active)

Prompt line: Fill in: Potency of CCOP(=O)(OCC)Oc1ccc2c(C)cc(=O)oc2c1 is ___
Response line: inactive
